biological target: Pol/UL42 long-chain DNA synthesis (HSV Pol + HSV MBP-UL42) (Human herpesvirus 1); construct: in presence of the whole catalytic subunit; test: DNA polymerase long-chain synthesis assay
Sequence (P10226 1-339): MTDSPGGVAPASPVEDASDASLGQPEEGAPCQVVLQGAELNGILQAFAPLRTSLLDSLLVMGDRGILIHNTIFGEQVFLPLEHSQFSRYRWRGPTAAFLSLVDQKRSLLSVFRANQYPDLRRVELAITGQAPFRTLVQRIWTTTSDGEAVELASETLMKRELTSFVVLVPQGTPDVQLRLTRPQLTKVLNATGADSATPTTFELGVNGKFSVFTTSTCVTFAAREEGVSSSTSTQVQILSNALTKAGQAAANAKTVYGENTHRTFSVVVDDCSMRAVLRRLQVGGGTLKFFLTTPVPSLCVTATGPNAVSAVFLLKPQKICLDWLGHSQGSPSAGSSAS
pIC50: −log10 of the molar value.
# pIC50 annotations

{"columns": ["MOLECULE", "pIC50"],
 "data": [
  ["CC(C)C(C(=O)O)N1C(=O)/C(=C/c2ccc(Cl)cc2Cl)SC1=S (stereo not shown) [BP3]", 4.52],
  ["O=C(Nc1cccc2nsnc12)c1cc(Br)ccc1NS(=O)(=O)c1ccc(Cl)cc1 [BP5]", 4.59],
  ["CSCCC(C(=O)O)N1C(=O)/C(=C/c2ccc(Cl)cc2Cl)SC1=S (stereo not shown) [BP9]", 4.60],
  ["Cc1ccc(C(C)C)cc1OCC(=O)NN=Cc1cc([N+](=O)[O-])ccc1O [BP1]", 4.60]
]}

---

molecular target: HSV Pol (Human herpesvirus 1, UniProt P04293, N46K); construct: in presence of the whole catalytic subunit; assay: Catalytic subunit activity filter binding assay (Pol alone); type: biochemical, herpes simplex virus; conditions: at higher compound concentrations, FIG. 5
Sequence (P04293 whole entry N46K): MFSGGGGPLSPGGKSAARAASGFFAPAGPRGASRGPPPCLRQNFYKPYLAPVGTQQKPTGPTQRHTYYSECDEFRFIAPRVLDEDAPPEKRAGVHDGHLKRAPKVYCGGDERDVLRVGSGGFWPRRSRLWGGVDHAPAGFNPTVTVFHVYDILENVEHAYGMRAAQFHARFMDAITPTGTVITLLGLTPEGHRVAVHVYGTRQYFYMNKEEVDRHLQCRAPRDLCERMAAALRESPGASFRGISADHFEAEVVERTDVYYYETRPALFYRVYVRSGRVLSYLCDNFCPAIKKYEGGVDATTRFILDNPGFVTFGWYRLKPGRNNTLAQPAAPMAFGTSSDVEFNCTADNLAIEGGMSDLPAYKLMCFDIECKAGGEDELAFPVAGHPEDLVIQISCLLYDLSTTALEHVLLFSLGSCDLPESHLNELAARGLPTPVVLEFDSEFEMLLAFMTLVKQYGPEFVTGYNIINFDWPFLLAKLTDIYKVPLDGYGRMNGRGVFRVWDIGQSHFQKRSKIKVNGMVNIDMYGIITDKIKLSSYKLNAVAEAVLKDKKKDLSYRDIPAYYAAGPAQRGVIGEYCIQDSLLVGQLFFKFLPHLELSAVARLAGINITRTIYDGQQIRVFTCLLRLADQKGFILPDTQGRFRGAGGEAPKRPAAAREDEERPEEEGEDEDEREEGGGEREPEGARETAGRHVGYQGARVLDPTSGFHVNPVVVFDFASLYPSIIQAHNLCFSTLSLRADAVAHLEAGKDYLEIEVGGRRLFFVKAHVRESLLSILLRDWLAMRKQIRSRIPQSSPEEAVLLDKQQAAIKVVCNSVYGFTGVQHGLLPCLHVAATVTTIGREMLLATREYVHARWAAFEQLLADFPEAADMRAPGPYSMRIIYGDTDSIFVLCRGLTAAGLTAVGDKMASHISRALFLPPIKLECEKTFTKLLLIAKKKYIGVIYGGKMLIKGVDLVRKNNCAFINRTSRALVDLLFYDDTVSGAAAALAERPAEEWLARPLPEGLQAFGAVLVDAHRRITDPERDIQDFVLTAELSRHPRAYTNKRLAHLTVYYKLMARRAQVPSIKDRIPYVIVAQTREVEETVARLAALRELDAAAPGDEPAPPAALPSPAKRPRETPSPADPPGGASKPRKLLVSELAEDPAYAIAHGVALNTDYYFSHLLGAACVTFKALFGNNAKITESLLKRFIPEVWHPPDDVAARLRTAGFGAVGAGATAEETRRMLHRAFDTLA
MEASURE: Pol activity in absence of UL42

{"columns": ["COMPOUND", "RESULT"],
 "data": [
  ["CC(C)C(C(=O)O)N1C(=O)/C(=C/c2ccc(Cl)cc2Cl)SC1=S (stereo not shown) [BP3]", "significantly reduced"],
  ["CSCCC(C(=O)O)N1C(=O)/C(=C/c2ccc(Cl)cc2Cl)SC1=S (stereo not shown) [BP9]", "significantly reduced"]
]}
